Target: T1, Canine IL-31RA ECD-10His (canine, biotin-labeled in the Octet assay (site not stated))
T1 construct: The ELISA and Octet protocols say only 'IL-31RA' or 'canine IL-31RA'; also called cIL-31RA; canine IL-31 receptor alpha extracellular domain, HIS-tagged
T1 chain: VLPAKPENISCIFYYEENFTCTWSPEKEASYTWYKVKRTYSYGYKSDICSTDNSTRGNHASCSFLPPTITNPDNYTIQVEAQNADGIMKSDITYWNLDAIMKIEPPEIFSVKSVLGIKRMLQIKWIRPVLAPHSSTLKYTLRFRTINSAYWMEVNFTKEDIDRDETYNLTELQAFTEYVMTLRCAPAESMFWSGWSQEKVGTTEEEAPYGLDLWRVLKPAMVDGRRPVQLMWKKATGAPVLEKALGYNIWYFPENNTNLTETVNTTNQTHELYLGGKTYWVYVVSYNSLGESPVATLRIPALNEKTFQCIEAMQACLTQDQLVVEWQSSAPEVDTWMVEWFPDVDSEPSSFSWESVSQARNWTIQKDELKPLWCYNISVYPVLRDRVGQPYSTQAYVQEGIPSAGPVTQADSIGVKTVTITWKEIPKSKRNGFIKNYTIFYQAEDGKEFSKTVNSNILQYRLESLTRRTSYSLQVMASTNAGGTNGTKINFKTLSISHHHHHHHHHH
Experiment: BLI (Octet), biotin-labeled canine IL-31RA on SA biosensors
Method: All kinetics measurements were performed by Octet HTX using SA biosensors and Data Acquisition 12.0 software. A biotin-labeled antigen (canine IL-31RA) was loaded onto the pre-rehydrated SA biosensors for 120s at a concentration of 1 μg/mL. Next, the biosensors were placed into Octet Kinetics Buffer (PBS+0.02% Tween 20, 0.1% BSA) for the blocking phase for 120s. […]
Labelling: koff reported below 0.0002 s⁻¹ becomes Fulfilled; at or above becomes Not fulfilled.

Recorded results for 4 binders are shown here.
binder	qualitativeLabel
Chimeric 218D9 (antibody, V domains shown, canine constant regions not specified; also called mouse-canine chimeric 218D9 antibody) VH: QVTLKESGPGILQPSQTLSLTCSFSGFSLSTFGRGVGWIRQPSGKGLDWLTHIWWDDDKYYNPALKSRLTISKDTSKNQVFLKIANVDTADTATYYCARIAGGLRRAPYAMDSWGQGTSVTVSS VL: DIQMTQSPASLSVSVGETVTITCRASENIYSSLAWYQQKQGKSPQLLVYAATNLADGVPSRFSGSGSGTQYSLKINSLQSEDSGNYYCQHFRDTPPTFGGGTKLEIK	Fulfilled
c51F8VH4VL7 (antibody, V domains shown, Caninized antibody; chains tied by name to c51F8VH4-cIgGBm and c51F8VL7-cCK; also called c51F8VH4L7) VH: EVQLVQSGAEVVKPGASVKVSCTASGFNIKNTFIHWVRQRPGAGLDWIGRIDPANGNTKYAPKFQGRATLTADTSTNTAYMQLSSLRAGDIAVYYCARYYYVSSYFDVWGTGTLVTVSS VL: DIVMTQTPLSLSVSPGETASISCKASQSVTNDVTWFRQKPGQSPKLLIYSASNRYTGVPDRFSGSGSGTDFTLRISTVEADDTGVYYCQQDYSSPWTFGQGTKLEIKR	Not fulfilled
c218D9VH3VL3 (antibody, V domains shown, Caninized antibody; chains tied by name to c218D9VH3-cIgGBm and c218D9VL3-cCK; also called c218D9VH3L3) VH: EVTLQESGPGLVKPSQTLSLTCSFSGFSLSTFGRGVGWIRQRPGRGLEWMGHIWWDDDKYYNPALKSRLSITKDTAKNQFSLQLSSMTTEDTAVYYCARIAGGLRRAPYAMDSWGQGTLVTVSS VL: DIVMTQTPLSLSVSPGETASISCRASENIYSSLAWFRQKPGQSPQLLVYAATNLADGVPDRFSGSGSGTDYTLRISRVEADDTGVYYCQHFRDTPPTFGQGTKLEIKR	Fulfilled
c218D9VH3VL2 (antibody, V domains shown, Caninized antibody; chains tied by name to c218D9VH3-cIgGBm and c218D9VL2-cCK; also called c218D9VH3L2) VH: EVTLQESGPGLVKPSQTLSLTCSFSGFSLSTFGRGVGWIRQRPGRGLEWMGHIWWDDDKYYNPALKSRLSITKDTAKNQFSLQLSSMTTEDTAVYYCARIAGGLRRAPYAMDSWGQGTLVTVSS VL: DIVMTQTPLSLSVSPGETASISCRASENIYSSLAWFRQKPGQSPQLLIYAATNLADGVPDRFSGSGSGTDFTLRISRVEADDTGVYYCQHFRDTPPTFGQGTKLEIKR	Not fulfilled

-- ask Dear colleague, could you confirm whether koff of c218D9VH4VL2 (antibody, V domains shown, Caninized antibody; chains tied by name to c218D9VH4-cIgGBm and c218D9VL2-cCK; also called c218D9VH4L2) VH: EVTLQESGPGLVKPSQTLSLTCSFSGFSLSTFGRGVGWIRQRPGRGLEWMGHIWWDDDKYYNPALKSRLSITKDTAKNQVFLQLSSMTTEDTAVYYCARIAGGLRRAPYAMDSWGQGTLVTVSS VL: DIVMTQTPLSLSVSPGETASISCRASENIYSSLAWFRQKPGQSPQLLIYAATNLADGVPDRFSGSGSGTDFTLRISRVEADDTGVYYCQHFRDTPPTFGQGTKLEIKR falls below 0.0002 s⁻¹? Thanks.
-- reply Fulfilled

-- ask Dear colleague, could you confirm whether koff of Chimeric 51F8 (antibody, V domains shown, canine constant regions not specified; also called murine-canine chimeric 51F8) VH: EVQLQQSVAELVRPGASVKLSCTASGFNIKNTFIHWVKQRPEQGLEWIGRIDPANGNTKYAPKFQGRATLTADTSSNTAYLQLSSLTSEDTAIYYCARYYYVSSYFDVWGTGTTVTVSS VL: SIVMTQTPKFLLVSAGDRVTITCKASQSVTNDVTWYQQKPGQSPKLLIFSASNRYTGVPDRFTGSGYGTDFTFTISTVQAEDLAVYFCQQDYSSPWTFGGGTKLEIK falls below 0.0002 s⁻¹? Thanks.
-- reply Fulfilled

-- ask Dear colleague, could you confirm whether koff of c218D9VH4VL3 (antibody, V domains shown, Caninized antibody; chains tied by name to c218D9VH4-cIgGBm and c218D9VL3-cCK; also called c218D9VH4L3) VH: EVTLQESGPGLVKPSQTLSLTCSFSGFSLSTFGRGVGWIRQRPGRGLEWMGHIWWDDDKYYNPALKSRLSITKDTAKNQVFLQLSSMTTEDTAVYYCARIAGGLRRAPYAMDSWGQGTLVTVSS VL: DIVMTQTPLSLSVSPGETASISCRASENIYSSLAWFRQKPGQSPQLLVYAATNLADGVPDRFSGSGSGTDYTLRISRVEADDTGVYYCQHFRDTPPTFGQGTKLEIKR falls below 0.0002 s⁻¹? Thanks.
-- reply Fulfilled

-- ask Dear colleague, could you confirm whether koff of c51F8VH4VL6 (antibody, V domains shown, Caninized antibody; chains tied by name to c51F8VH4-cIgGBm and c51F8VL6-cCK; also called c51F8VH4L6) VH: EVQLVQSGAEVVKPGASVKVSCTASGFNIKNTFIHWVRQRPGAGLDWIGRIDPANGNTKYAPKFQGRATLTADTSTNTAYMQLSSLRAGDIAVYYCARYYYVSSYFDVWGTGTLVTVSS VL: DIVMTQTPLSLSVSPGETASISCKASQSVTNDVTWFRQKPGQSPQLLIYSASNRYTGVPDRFSGSGSGTDFTLRISTVEADDTGVYYCQQDYSSPWTFGQGTKLEIKR falls below 0.0002 s⁻¹? Thanks.
-- reply Not fulfilled

-- ask Dear colleague, could you confirm whether koff of c51F8VH3VL6 (antibody, V domains shown, Caninized antibody; chains tied by name to c51F8VH3-cIgGBm and c51F8VL6-cCK; also called c51F8VH3L6) VH: EVQLVQSGAEVKKPGASVKVSCTASGFNIKNTFIHWVRQAPGAGLDWIGRIDPANGNTKYAPKFQGRATLTADTSTNTAYMQLSSLRAGDIAVYYCARYYYVSSYFDVWGQGTLVTVSS VL: DIVMTQTPLSLSVSPGETASISCKASQSVTNDVTWFRQKPGQSPQLLIYSASNRYTGVPDRFSGSGSGTDFTLRISTVEADDTGVYYCQQDYSSPWTFGQGTKLEIKR falls below 0.0002 s⁻¹? Thanks.
-- reply Not fulfilled

-- ask Dear colleague, could you confirm whether koff of c51F8VH3VL7 (antibody, V domains shown, Caninized antibody; chains tied by name to c51F8VH3-cIgGBm and c51F8VL7-cCK; also called c51F8VH3L7) VH: EVQLVQSGAEVKKPGASVKVSCTASGFNIKNTFIHWVRQAPGAGLDWIGRIDPANGNTKYAPKFQGRATLTADTSTNTAYMQLSSLRAGDIAVYYCARYYYVSSYFDVWGQGTLVTVSS VL: DIVMTQTPLSLSVSPGETASISCKASQSVTNDVTWFRQKPGQSPKLLIYSASNRYTGVPDRFSGSGSGTDFTLRISTVEADDTGVYYCQQDYSSPWTFGQGTKLEIKR falls below 0.0002 s⁻¹? Thanks.
-- reply Not fulfilled
